# Test Method Notes: Half life in mouse plasma incubated up to 1440 mins by mass spectrometric analysis
# Type: ADME, cell-free
Property: half-life (h)

CCc1n(CC(=O)O[C@@H]2C[C@H](C)CC[C@H]2C(C)C)c2ccccc2[n+]1C.[Cl-] : 0.0667
CC(C)[C@@H]1CC[C@@H](C)C[C@H]1OC(=O)Cn1c(-c2cccc(C(F)(F)F)c2)[n+](C)c2ccccc21.[I-] : 5.1

###

# Test system: MCF7
# Test Method Notes: Inhibition of mammosphere formation in human MCF7 cells incubated for 5 days
# Type: functional, cell-based
# Experimental Context: MCF7, 120 h
pIC50: −log10 of the molar value.
Property: pIC50

O=C1C(O)=C([C@H]2CC[C@H](c3ccc(Cl)cc3)CC2)C(=O)c2ccccc21 : 6.00
